// data source = ChEMBL document CHEMBL3745672

study-system: Protein kinase C alpha type (Homo sapiens) (UniProt P17252)
assay-comment: Inhibition of PKCalpha (unknown origin) at 10 uM
I'd appreciate it if you could supply inhibition values for the items below.
Answer format: number, then unit.

[[record]]
cpd_smiles = "CN1CCN(c2ccc(Nc3ncc4cc(Oc5c(Cl)cccc5Cl)c(=O)n(C)c4n3)cc2)CC1"
result = "8%"

[[record]]
cpd_smiles = "CN1CCN(CCCNc2ncc3cc(Oc4ccc(F)cc4F)c(=O)n(C)c3n2)CC1"
result = "13%"

[[record]]
cpd_smiles = "Cn1c(=O)c(Oc2ccc(F)cc2F)cc2cnc(Nc3ccc(N4CCC(O)CC4)cc3)nc21"
result = "13%"


Return reported inhibition values for all items listed beneath this line.
1. Cn1c(=O)c(Oc2ccc(F)cc2F)cc2cnc(NCCc3ccccn3)nc21
2. Cn1c(=O)c(Oc2ccc(F)cc2F)cc2cnc(Nc3ccc(N4CCCCC4)cc3)nc21
3. Cn1c(=O)c(Oc2ccc(F)cc2F)cc2cnc(NC3CCN(S(C)(=O)=O)CC3)nc21

Solution:
1: 8%; 2: 14%; 3: 10%

* * *

study-system: Tyrosine-protein kinase SYK (Homo sapiens) (UniProt P43405)
assay-comment: Inhibition of SYK (unknown origin) at 10 uM
Decide using inhibition: a value greater than or equal to 3% is fulfilled, a smaller one is not fulfilled.

Check out these entries, answers already filled in.
[[record]]
cpd_smiles = "CN1CCN(c2ccc(Nc3ncc4cc(Oc5ccc(F)cc5F)c(=O)n(C)c4n3)cc2)CC1"
study_system = "Tyrosine-protein kinase SYK (Homo sapiens) (UniProt P43405)"
group_label = "fulfilled"

[[record]]
cpd_smiles = "Cn1c(=O)c(Oc2ccc(F)cc2F)cc2cnc(Nc3ccc(N4CCCCC4)cc3)nc21"
study_system = "Tyrosine-protein kinase SYK (Homo sapiens) (UniProt P43405)"
group_label = "fulfilled"

[[record]]
cpd_smiles = "CN1CCN(c2ccc(Nc3ncc4cc(Oc5c(Cl)cccc5Cl)c(=O)n(C)c4n3)cc2)CC1"
study_system = "Tyrosine-protein kinase SYK (Homo sapiens) (UniProt P43405)"
group_label = "not fulfilled"


Note: attention shifts to another entry.
Problem: Check if inhibition >= 3% (inclusive). Item: `Cn1c(=O)c(Oc2ccc(F)cc2F)cc2cnc(Nc3ccc(N4CCC(O)CC4)cc3)nc21`
Solution: fulfilled

* * *

study-system: Tyrosine-protein kinase SYK (Homo sapiens) (UniProt P43405)
assay-comment: Inhibition of SYK (unknown origin) at 10 uM
observed-property: inhibition (%)
Give bare numbers, in %.

[[record]]
cpd_smiles = "CN1CCN(CCCNc2ncc3cc(Oc4ccc(F)cc4F)c(=O)n(C)c3n2)CC1"
study_system = "Tyrosine-protein kinase SYK (Homo sapiens) (UniProt P43405)"
observed_property = "inhibition"
u = "%"
quantitative_result = 0

[[record]]
cpd_smiles = "Cn1c(=O)c(Oc2ccc(F)cc2F)cc2cnc(NC3CCN(S(C)(=O)=O)CC3)nc21"
study_system = "Tyrosine-protein kinase SYK (Homo sapiens) (UniProt P43405)"
observed_property = "inhibition"
u = "%"
quantitative_result = 1

[[record]]
cpd_smiles = "Cn1c(=O)c(Oc2c(Cl)cccc2Cl)cc2cnc(NC3CCOCC3)nc21"
study_system = "Tyrosine-protein kinase SYK (Homo sapiens) (UniProt P43405)"
observed_property = "inhibition"
u = "%"
quantitative_result = 8


# ---- query compound ----
Problem: Find inhibition (Tyrosine-protein kinase SYK (Homo sapiens) (UniProt P43405)) for the entry `Cn1c(=O)c(Oc2ccc(F)cc2F)cc2cnc(NCCc3ccccn3)nc21`
Solution: 3

* * *

I'd appreciate it if you could supply inhibition values for the items below.
study-system: Tyrosine-protein kinase ABL1 (Homo sapiens)
assay-comment: Inhibition of ABL (unknown origin) at 10 uM

Please review the entries below; each comes with its answer.
[[record]]
cpd_smiles = "CN(C)CCNc1ncc2cc(Oc3ccc(F)cc3F)c(=O)n(C)c2n1"
study_system = "Tyrosine-protein kinase ABL1 (Homo sapiens)"
result = "0%"

[[record]]
cpd_smiles = "CN1CCN(c2ccc(Nc3ncc4cc(Oc5ccc(F)cc5F)c(=O)n(C)c4n3)cc2)CC1"
study_system = "Tyrosine-protein kinase ABL1 (Homo sapiens)"
result = "100%"

[[record]]
cpd_smiles = "Cn1c(=O)c(Oc2ccc(F)cc2F)cc2cnc(NCCc3ccccn3)nc21"
study_system = "Tyrosine-protein kinase ABL1 (Homo sapiens)"
result = "7%"


Return reported inhibition values for all items listed beneath this line.
1. Cn1c(=O)c(Oc2ccc(F)cc2F)cc2cnc(NC3CCN(S(C)(=O)=O)CC3)nc21
2. Cn1c(=O)c(Oc2ccc(F)cc2F)cc2cnc(Nc3ccc(N4CCCCC4)cc3)nc21
3. Cn1c(=O)c(Oc2c(Cl)cccc2Cl)cc2cnc(NC3CCOCC3)nc21
4. CN1CCN(CCCNc2ncc3cc(Oc4ccc(F)cc4F)c(=O)n(C)c3n2)CC1

Solution:
1: 8%; 2: 20%; 3: 0%; 4: 24%

Return reported inhibition values for all items listed beneath this line.
1. Cn1c(=O)c(Oc2ccc(F)cc2F)cc2cnc(Nc3ccc(N4CCC(O)CC4)cc3)nc21
2. CN1CCN(c2ccc(Nc3ncc4cc(Oc5c(Cl)cccc5Cl)c(=O)n(C)c4n3)cc2)CC1

Solution:
1: 81%; 2: 91%

* * *

study-system: Mitogen-activated protein kinase 8 (Homo sapiens)
Sequence (P45983 whole entry): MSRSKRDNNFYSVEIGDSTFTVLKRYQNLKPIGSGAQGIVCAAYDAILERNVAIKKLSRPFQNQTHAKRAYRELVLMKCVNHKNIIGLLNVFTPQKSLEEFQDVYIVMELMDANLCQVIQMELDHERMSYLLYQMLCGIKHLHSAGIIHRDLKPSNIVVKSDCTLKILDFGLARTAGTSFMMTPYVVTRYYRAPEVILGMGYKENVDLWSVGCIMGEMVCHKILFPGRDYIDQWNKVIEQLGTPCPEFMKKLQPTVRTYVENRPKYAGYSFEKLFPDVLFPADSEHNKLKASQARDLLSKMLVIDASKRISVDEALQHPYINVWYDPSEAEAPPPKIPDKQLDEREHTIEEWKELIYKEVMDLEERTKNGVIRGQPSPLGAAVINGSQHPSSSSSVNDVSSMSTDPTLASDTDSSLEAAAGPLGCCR
assay-comment: Inhibition of JNK1 (unknown origin) expressed in HEK293 cells assessed as anisomycin-induced JNK phosphorylation at 10 uM incubated for 30 mins by Western blot analysis relative to anisomycin
Format: cell-based
Parameters: scale not given: the % may be the effect or the level left
I'd appreciate it if you could supply Activity values for the items below.
Answers are plain numbers, in %.

Please review the entries below; each comes with its answer.
[[record]]
molecule = "Cn1c(=O)c(Oc2c(Cl)cccc2Cl)cc2cnc(N3CCCCC3CO)nc21 (stereo not given)"
u = "%"
quantitative_result = 110

[[record]]
molecule = "Cn1c(=O)c(Oc2ccc(F)cc2F)cc2cnc(NCc3ccccn3)nc21"
u = "%"
quantitative_result = 68.2

[[record]]
molecule = "Cn1c(=O)c(Oc2ccc(F)cc2F)cc2cnc(NCCN3CCOCC3)nc21"
u = "%"
quantitative_result = 96.1

[[record]]
molecule = "Cn1c(=O)c(Oc2c(Cl)cccc2Cl)cc2cnc(NC3CC3)nc21"
u = "%"
quantitative_result = 96.1

[[record]]
molecule = "CN1CCN(CCCNc2ncc3cc(Oc4ccc(F)cc4F)c(=O)n(C)c3n2)CC1"
u = "%"
quantitative_result = 153

[[record]]
molecule = "Cn1c(=O)c(Oc2c(Cl)cccc2Cl)cc2cnc(Nc3ccc(N4CCC(O)CC4)cc3)nc21"
u = "%"
quantitative_result = 58.9

[[record]]
molecule = "CN1CCN(c2ccc(Nc3ncc4cc(Oc5c(Cl)cccc5Cl)c(=O)n(C)c4n3)cc2)CC1"
u = "%"
quantitative_result = 45

[[record]]
molecule = "Cn1c(=O)c(Oc2ccc(F)cc2F)cc2cnc(N3CCC(O)CC3)nc21"
u = "%"
quantitative_result = 122


Return reported Activity values for all items listed beneath this line.
1. Cn1c(=O)c(Oc2c(Cl)cccc2Cl)cc2cnc(N3CCC(O)CC3)nc21
2. Cn1c(=O)c(Oc2c(Cl)cccc2Cl)cc2cnc(Nc3ccc(N4CCCC4)cc3)nc21

Solution:
96.3
136

* * *

I'd appreciate it if you could supply inhibition values for the items below.
study-system: CDK2/Cyclin A2 (Homo sapiens) (UniProt P24941+P20248)
assay-comment: Inhibition of CDK2/CyclinA (unknown origin) at 10 uM
Assay type: protein-complex assay
Numbers only, in %.

Please review the entries below; each comes with its answer.
[[record]]
cpd_smiles = "CN1CCN(c2ccc(Nc3ncc4cc(Oc5ccc(F)cc5F)c(=O)n(C)c4n3)cc2)CC1"
study_system = "CDK2/Cyclin A2 (Homo sapiens) (UniProt P24941+P20248)"
quantitative_result = 0

[[record]]
cpd_smiles = "Cn1c(=O)c(Oc2ccc(F)cc2F)cc2cnc(NC3CCN(S(C)(=O)=O)CC3)nc21"
study_system = "CDK2/Cyclin A2 (Homo sapiens) (UniProt P24941+P20248)"
quantitative_result = 23

[[record]]
cpd_smiles = "CN1CCN(c2ccc(Nc3ncc4cc(Oc5c(Cl)cccc5Cl)c(=O)n(C)c4n3)cc2)CC1"
study_system = "CDK2/Cyclin A2 (Homo sapiens) (UniProt P24941+P20248)"
quantitative_result = 14


Return reported inhibition values for all items listed beneath this line.
1. Cn1c(=O)c(Oc2c(Cl)cccc2Cl)cc2cnc(NC3CCOCC3)nc21
2. CN1CCN(CCCNc2ncc3cc(Oc4ccc(F)cc4F)c(=O)n(C)c3n2)CC1
3. Cn1c(=O)c(Oc2ccc(F)cc2F)cc2cnc(Nc3ccc(N4CCC(O)CC4)cc3)nc21
4. Cn1c(=O)c(Oc2ccc(F)cc2F)cc2cnc(Nc3ccc(N4CCCCC4)cc3)nc21
5. Cn1c(=O)c(Oc2ccc(F)cc2F)cc2cnc(NCCc3ccccn3)nc21

Solution:
1. 3
2. 3
3. 11
4. 10
5. 6

Problem: Which inhibition value belongs to `CN(C)CCNc1ncc2cc(Oc3ccc(F)cc3F)c(=O)n(C)c2n1` ?
Solution: 13
